# credit: PubChem BioAssay (NCI)

- Test system: NCI-H460 lung
- assay-info: NCI tumour cell line growth inhibition, 48 h
Entries and their TGI values follow.
observed-property: TGI (µM)

>>> measured_number("COc1cc([C@@H]2c3cc4c(cc3[C@@H](Nc3ccc(NC(=O)c5cc(NC(=O)c6cc([N+](=O)[O-])cn6C)cn5C)cc3)[C@H]3COC(=O)[C@H]23)OCO4)cc(OC)c1O")
13.2
>>> measured_number("Oc1ccc(-c2nc3ccc4[nH]ncc4c3c3c2CCCC3)c2cccnc12")
0.863

----------
Entries and their TGI values follow.
- Test system: RPMI-8226 leukemia
- assay-info: NCI tumour cell line growth inhibition, 48 h
observed-property: TGI

>>> result("CC(C)(C)OC(=O)NCCNC(=O)CN(CC(=O)O)C1CCCCC1N(CC(=O)O)CC(=O)O (centres undefined)")
"> 100 µM"
>>> result("CC(C)C(/C=C/c1ccccc1)=N\\NC(=S)NN")
"> 100 µM"
>>> result("C#CC#CC#CC#CC#CC#CC#CC#CCC1OC[C@H](COC(=O)O[C@@H](C(=O)O[C@H]2C[C@@]3(O)[C@@H](OC(=O)c4ccccc4)[C@@H]4[C@]5(OC(C)=O)CO[C@@H]5C[C@H](O)[C@@]4(C)C(=O)[C@H](OC(C)=O)C(=C2C)C3(C)C)[C@@H](NC(=O)c2ccccc2)c2ccccc2)O1 (some centres undefined)")
"> 33.3 µM"
>>> result("Cc1nn(C(=O)c2ccc(Cl)cc2)c2c1C(c1ccco1)SC(N)=N2 (centres undefined)")
"> 10 µM"
>>> result("COC1CCC(n2c([C@@H]3CCCC(=O)N3c3ccc(F)c(F)c3)nc3cc(-c4c(C)noc4C)ccc32)CC1 (some centres undefined)")
"8.21 µM"
>>> result("CCCCC(=O)OC[n+]1ccc2c(C)c3[nH]c4ccc(OC)cc4c3c(C)c2c1")
"0.983 µM"
>>> result("CCOC(=O)C1(C(=O)OCC)CC=C(C)CC12C(=O)Nc1ccccc12 (centres undefined)")
"> 100 µM"
>>> result("CCOC(=O)c1ccc(NC(NC(=O)CC)(C(F)(F)F)C(F)(F)F)cc1")
"> 100 µM"
>>> result("C=C1CO[C@@H]2C[C@@H]1CCC1(C)OC1CC/C(C)=C/CC[C@@]2(C)O (some centres undefined)")
"44.5 µM"
